Origin of values: patent US20120316071A1

Target: T1, Recombinant Human DLL4 (R&D Systems Cat#1506-D4/CF) (human, UniProt Q9NR61 27-524)
T1 construct: Bought recombinant protein; also called delta-like protein 4; rHuman DLL4
Experiment: ECL (MSD) multispot binding assay, DLL4 spotted on plate, Fab in solution
observable: ECL signal
Number only, no unit.

Worked examples follow.
Fab VH1-46_IGHD6-6*01_IGHJ1*01 S102A/S103P/S104F/H111F (APFF) & L6_IGKJ1*01 S28V (Fab, V domains shown, Tested as a Fab; Expressed in E. coli from Plasmid A (CH1 with His6 and Flag tags) and Plasmid C (kappa CL); also called APFF & S28V) VH: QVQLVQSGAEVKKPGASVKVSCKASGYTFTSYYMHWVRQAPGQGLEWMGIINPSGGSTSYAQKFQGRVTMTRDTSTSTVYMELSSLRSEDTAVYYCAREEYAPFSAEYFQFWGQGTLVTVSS VL: EIVLTQSPATLSLSPGERATLSCRASQVVSSYLAWYQQKPGQAPRLLIYDASNRATGIPARFSGSGSGTDFTLTISSLEPEDFAVYYCQQRSNWPPWTFGQGTKVEIKR	83100
Fab VH1-46_IGHD6-6*01_IGHJ1*01 S102A/S103P/S104F (APF) & L6_IGKJ1*01 S30W (Fab, V domains shown, Tested as a Fab; Expressed in E. coli from Plasmid A (CH1 with His6 and Flag tags) and Plasmid C (kappa CL); also called APF & S30W) VH: QVQLVQSGAEVKKPGASVKVSCKASGYTFTSYYMHWVRQAPGQGLEWMGIINPSGGSTSYAQKFQGRVTMTRDTSTSTVYMELSSLRSEDTAVYYCAREEYAPFSAEYFQHWGQGTLVTVSS VL: EIVLTQSPATLSLSPGERATLSCRASQSVWSYLAWYQQKPGQAPRLLIYDASNRATGIPARFSGSGSGTDFTLTISSLEPEDFAVYYCQQRSNWPPWTFGQGTKVEIKR	791

Okay, next one:
Qu. // fetch ECL signal given entry Fab VH1-46_IGHD6-6*01_IGHJ1*01 S102A/S103P/S104F/H111F (APFF) & L6_IGKJ1*01 S28G (Fab, V domains shown, Tested as a Fab; Expressed in E. coli from Plasmid A (CH1 with His6 and Flag tags) and Plasmid C (kappa CL); also called APFF & S28G) VH: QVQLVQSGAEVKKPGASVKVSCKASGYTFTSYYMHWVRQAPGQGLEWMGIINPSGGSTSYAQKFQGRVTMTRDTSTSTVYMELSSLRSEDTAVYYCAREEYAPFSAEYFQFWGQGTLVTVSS VL: EIVLTQSPATLSLSPGERATLSCRASQGVSSYLAWYQQKPGQAPRLLIYDASNRATGIPARFSGSGSGTDFTLTISSLEPEDFAVYYCQQRSNWPPWTFGQGTKVEIKR
Ans. 183000
